# study system: Cytochrome P450 2C19 (Homo sapiens) (UniProt P33261)
# Sequence (P33261 whole entry, looked up): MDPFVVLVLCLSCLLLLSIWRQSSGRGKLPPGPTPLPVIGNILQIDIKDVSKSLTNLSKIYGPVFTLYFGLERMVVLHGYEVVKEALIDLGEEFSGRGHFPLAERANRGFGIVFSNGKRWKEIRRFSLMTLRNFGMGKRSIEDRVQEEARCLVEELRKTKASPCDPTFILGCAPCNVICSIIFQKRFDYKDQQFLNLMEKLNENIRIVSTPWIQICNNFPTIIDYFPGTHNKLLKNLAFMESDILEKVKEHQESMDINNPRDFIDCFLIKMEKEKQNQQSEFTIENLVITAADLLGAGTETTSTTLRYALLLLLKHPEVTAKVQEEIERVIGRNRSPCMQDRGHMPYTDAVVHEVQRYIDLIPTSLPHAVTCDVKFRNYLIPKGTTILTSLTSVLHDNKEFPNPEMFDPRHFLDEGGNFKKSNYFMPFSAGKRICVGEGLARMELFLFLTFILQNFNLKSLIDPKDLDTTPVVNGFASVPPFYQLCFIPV
# assay details: Cytochrome panel assay with activity outcomes
# test parameters: recombinant CYP, pro-luciferin dealkylation, luminescence, p450-cyp2c19; series mostly up to 57.1 µM
In all, about 16,000 compounds went through this assay and about 5,800 (36%) were called active. About 23% were inconclusive and are not listed. The call rests on the fitted dose curve; in most records, active means well fitted curve in the direction sought with a large enough effect; inconclusive means small, poorly fitted or top-dose-only effect, or effect the other way; inactive means no such curve, though single readings can be large or run the other way. The list shows a part of the results.
Possible outcomes: class 1 = active, class 0 = inactive

{"smiles string": "CC(C)(CNC(=O)c1ccc([N+](=O)[O-])c(Cl)c1)CNC(=O)c1ccc([N+](=O)[O-])c(Cl)c1", "study system": "Cytochrome P450 2C19 (Homo sapiens) (UniProt P33261)", "discrete label": "class 1"}
{"smiles string": "c1ccc2c3c([nH]c2c1)[C@@H]1[C@H]2CC[C@H]([C@H]4CCCN[C@H]42)N1CC3", "study system": "Cytochrome P450 2C19 (Homo sapiens) (UniProt P33261)", "discrete label": "class 0"}
{"smiles string": "O=C(c1ccco1)N1CCC2(CC1)CN(Cc1cc(C(F)(F)F)cc(C(F)(F)F)c1)C2", "study system": "Cytochrome P450 2C19 (Homo sapiens) (UniProt P33261)", "discrete label": "class 0"}

---

# study system: Cytochrome P450 2C19 (Homo sapiens)
# assay details: Cytochrome panel assay with activity outcomes
# test parameters: recombinant CYP, pro-luciferin dealkylation, luminescence, p450-cyp2c19; series mostly up to 57.1 µM
Among all 16,000 compounds or so, about 5,800 (36%) were called active. Another 23% or so got no clear call; they are omitted. The call rests on the fitted dose curve; in most records, active means well fitted curve in the direction sought with a large enough effect; inconclusive means small, poorly fitted or top-dose-only effect, or effect the other way; inactive means no such curve, though single readings can be large or run the other way. This is one part of the list.
Possible outcomes: active, inactive

{"compound": "CC(=O)NCCNc1ncnc2ccc(-c3ccoc3)cc12", "discrete label": "inactive"}
{"compound": "C[C@@H](C(=O)NCc1ccccn1)[C@H]1C[C@]1(C)[C@H](NC(=O)OCc1ccccc1)c1ccccc1", "discrete label": "active"}
{"compound": "CC(=O)Nc1ccc(S(=O)(=O)c2ccc(N)cc2)cc1", "discrete label": "active"}
{"compound": "CCNc1ncc2nc(-c3ccccc3)c(=O)n(C3CC3)c2n1", "discrete label": "inactive"}
{"compound": "CCOC(=O)c1c2ccc(OCC(=O)N/N=C/c3ccc(Cl)cc3)cc2n2ccccc12", "discrete label": "active"}
{"compound": "CC(=O)NCCNc1ncnc2ccc(-c3ccccc3C)cc12", "discrete label": "active"}
{"compound": "Cc1cccc(-n2ncc3c(Nc4c(C)n(C)n(-c5ccccc5)c4=O)ncnc32)c1", "discrete label": "inactive"}
{"compound": "CC(=O)NCCNc1ncnc2ccc(-c3ccc(C(=O)N(C)C)cc3)cc12", "discrete label": "inactive"}
{"compound": "Cn1ncc2c(Nc3cccc(C(=O)O)c3)ncnc21", "discrete label": "inactive"}
{"compound": "COc1ccc2[nH]cc(CCNc3cc(-c4ccccc4C(F)(F)F)ncn3)c2c1", "discrete label": "active"}
{"compound": "O=c1cc(-c2ccccc2)[nH]n1-c1ccc([N+](=O)[O-])cc1", "discrete label": "active"}
{"compound": "C[C@@H]1C[C@H](OC(=O)[C@@H](O)c2ccccc2)CC(C)(C)N1C", "discrete label": "inactive"}
{"compound": "CC1CCc2c(C(=O)Nc3nccs3)csc2C1 (configuration not stated)", "discrete label": "active"}
{"compound": "CCn1c(SCC(=O)c2ccc(OC)cc2)nnc1C1CC1", "discrete label": "active"}
{"compound": "CCCN(C(=S)Nc1ccccc1)C1CCS(=O)(=O)C1 (configuration not stated)", "discrete label": "inactive"}
{"compound": "CCCCNC(=S)NNC(=O)c1csc2c1CCC(C)C2 (configuration not stated)", "discrete label": "active"}
{"compound": "C=C1C(=O)O[C@@H]2[C@@H]1CC/C(C)=C\\CC[C@@]1(C)O[C@H]21", "discrete label": "inactive"}
{"compound": "COc1cccc2c(=O)c(C(=O)NCc3cccs3)c[nH]c12", "discrete label": "active"}
{"compound": "CCCCNC(=S)NNC(=O)c1sccc1C", "discrete label": "active"}
{"compound": "CCOc1ccc(CN(C(=O)c2oc3ccccc3c2C)C2CCS(=O)(=O)C2)cc1 (configuration not stated)", "discrete label": "active"}
{"compound": "N#CC(c1ccc(Cl)cc1)c1nc2ccccc2nc1C(F)(F)F (configuration not stated)", "discrete label": "active"}
{"compound": "N#Cc1c(-c2ccc(Cl)cc2)nc2n(c1=O)CCCS2", "discrete label": "active"}
{"compound": "Oc1ccc(-c2[nH]ncc2-c2ccc(Cl)cc2)c(O)c1", "discrete label": "active"}
{"compound": "COc1ccc(OC)c(C2C(C(=O)Nc3nc4ccccc4s3)=C(C)NC3=C2C(=O)CCC3)c1 (configuration not stated)", "discrete label": "active"}
{"compound": "CC(=O)Nc1ccc(Nc2ncnc3c2cnn3-c2ccccc2)cc1", "discrete label": "active"}
{"compound": "CC(C)CN1CCCC2(CCN(C(=O)c3cnccn3)CC2)C1", "discrete label": "inactive"}
{"compound": "O=c1c(-c2ccccc2)c(O)c2cccc3c2n1CCC3", "discrete label": "inactive"}
{"compound": "C[C@H](N)CCCC(C)(C)O", "discrete label": "inactive"}
{"compound": "Cc1cc(C)nc(SCc2nnc(SCC(N)=O)n2Cc2ccco2)n1", "discrete label": "inactive"}
{"compound": "CC(=O)NCCNc1ncnc2ccc(-c3ccc4c(c3)OCO4)cc12", "discrete label": "active"}
{"compound": "COC(=O)[C@@H](NC(=O)Nc1ccc(C(C)=O)cc1)C(C)C", "discrete label": "active"}
{"compound": "CCNc1ncc2nc(CCc3ccccc3)c(=O)n(C)c2n1", "discrete label": "active"}
{"compound": "Nc1ncnc2c1ncn2[C@@H]1CCCO1", "discrete label": "inactive"}
{"compound": "Cc1ccccc1S(=O)(=O)Oc1ccccc1C(=O)Oc1ccccc1", "discrete label": "active"}
{"compound": "CCn1c(SC)nnc1C1CCN(S(=O)(=O)c2ccc(OC)cc2)CC1", "discrete label": "inactive"}
{"compound": "Cc1cc(C)c[n+](CC(=O)c2cc3ccccc3oc2=O)c1", "discrete label": "inactive"}
{"compound": "CCNc1ncc2nc(CCc3ccccc3)c(=O)n(Cc3ccc(F)cc3)c2n1", "discrete label": "inactive"}
